Collected viability, T/C values appear next to each entry.
system: 252836-082-R-J2-PDC tumor spheroids, viability; assay: Anticancer human tumor 252836-082-R-J2-PDC patient-derived head and neck squamous cell carcinoma cell line growth inhibition [PI3K]; conditions: second compound 10 µM; first compound 0.001 µM; stronger effect = lower value; spheroids with HUVEC and MSC;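 further: spheroids exposed to agents for seven days before readout; percent of vehicle DMSO control viability so 100% = untreated growth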
The answer is to be given in %; state only the numeric part.

1) CC(C)n1nc(-c2ccc3oc(N)nc3c2)c2c(N)ncnc21 + CC(Nc1ncnc2nc[nH]c12)c1cc2cccc(Cl)c2c(=O)n1-c1ccccc1 ... 60
2) Cn1ncnc1[C@H]1c2n[nH]c(=O)c3cc(F)cc(c23)N[C@@H]1c1ccc(F)cc1 + CC(Nc1ncnc2nc[nH]c12)c1cc2cccc(Cl)c2c(=O)n1-c1ccccc1 ... 59.4

Data request: Fill in the blank: the reported viability, T/C of CC(=O)c1c(C)c2cnc(Nc3ccc(N4CCNCC4)cn3)nc2n(C2CCCC2)c1=O + Cc1nc(NC(=O)N2CCCC2C(N)=O)sc1-c1ccnc(C(C)(C)C(F)(F)F)c1 is ____.
Data returned: 30.6
